Notes on pIC50 obtained with Pim-2 (Homo sapiens (Human)).
Sequence (Q9P1W9 whole entry): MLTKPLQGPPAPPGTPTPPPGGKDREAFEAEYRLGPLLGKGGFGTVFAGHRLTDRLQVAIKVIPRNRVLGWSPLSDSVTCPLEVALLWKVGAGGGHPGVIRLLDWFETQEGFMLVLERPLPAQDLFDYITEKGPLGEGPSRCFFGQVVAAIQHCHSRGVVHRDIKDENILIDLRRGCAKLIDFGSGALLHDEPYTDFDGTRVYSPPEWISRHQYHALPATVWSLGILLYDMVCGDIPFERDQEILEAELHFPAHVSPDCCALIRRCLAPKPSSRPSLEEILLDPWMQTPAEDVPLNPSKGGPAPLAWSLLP
pIC50: −log10 of the molar value.

Example cases with answers are listed next.
With Pim-2 (Homo sapiens (Human)) as the test system, provide measured pIC50 for this compound: CCn1cc(-c2cnc3c(C(=O)Nc4cnccc4[C@@H]4C[C@H](C)C[C@H](N)C4)ccc(F)c3c2)cn1
6.00 to 7.00

Under Pim-2 (Homo sapiens (Human)): report pIC50 of C[C@@H]1C[C@H](N)C[C@H](c2ccncc2NC(=O)c2ccc(F)c3cc(N4CCN(C)C(=O)[C@@H]4C)cnc23)C1 .
≥ 7.00

Please respond with reported pIC50 (system Pim-2 (Homo sapiens (Human))) for Cc1n[nH]cc1-c1cnc2c(C(=O)Nc3cnccc3[C@@H]3C[C@H](C)C[C@H](N)C3)ccc(F)c2c1 .
6.00 to 7.00

Give pIC50 only, for CO[C@@H]1C[C@@H](C)N(c2cnc3c(C(=O)Nc4cnccc4[C@@H]4C[C@H](C)C[C@H](N)C4)ccc(F)c3c2)C1 , using Pim-2 (Homo sapiens (Human)) data.
≥ 7.00

Enter measured pIC50, system Pim-2 (Homo sapiens (Human)), for the compound shown: CC1CCCCN1c1cnc2c(C(=O)Nc3cnccc3[C@@H]3C[C@H](C)C[C@H](N)C3)ccc(F)c2c1 (stereo partly shown)
≥ 7.00

---
State pIC50 (Pim-2 (Homo sapiens (Human))) of C[C@@H]1C[C@H](N)C[C@H](c2ccncc2NC(=O)c2ccc(F)c3cc(N4CCC(O)CC4)cnc23)C1 .
6.00 to 7.00

Provide the reported pIC50 (system: Pim-2 (Homo sapiens (Human))) for CC1CCC1N(C)c1cnc2c(C(=O)Nc3cnccc3[C@@H]3C[C@H](C)C[C@H](N)C3)ccc(F)c2c1 (stereo partly shown)
≥ 7.00

Param request: pIC50 | system Pim-2 (Homo sapiens (Human)) | item CCC1CCCCN1c1cnc2c(C(=O)Nc3cnccc3[C@@H]3C[C@H](C)C[C@H](N)C3)ccc(F)c2c1 (stereo partly shown)
≥ 7.00

With Pim-2 (Homo sapiens (Human)) as the test system, provide measured pIC50 for this compound: C[C@@H]1C[C@H](N)C[C@H](c2ccncc2NC(=O)c2ccc(F)c3cc(N4CCc5ccccc54)cnc23)C1
6.00 to 7.00

Please report pIC50 with Pim-2 (Homo sapiens (Human)) for item C[C@@H]1C[C@H](N)C[C@H](c2ccncc2NC(=O)c2ccc(F)c3cc(N4CCc5cnn(C)c5C4)cnc23)C1 .
≥ 7.00

Recall the reported pIC50 of C[C@@H]1C[C@H](N)C[C@H](c2ccncc2NC(=O)c2ccc(F)c3cc(N4CCn5cnnc5C4)cnc23)C1 on Pim-2 (Homo sapiens (Human)) and write it down.
6.00 to 7.00

For Pim-2 (Homo sapiens (Human)), give the measured pIC50 of the entry C[C@@H]1C[C@H](N)C[C@H](c2ccncc2NC(=O)c2ccc(F)c3cc(-c4cn[nH]c4)cnc23)C1
6.00 to 7.00

Please report pIC50 with Pim-2 (Homo sapiens (Human)) for item C[C@@H]1C[C@H](N)C[C@H](c2ccncc2NC(=O)c2ccc(F)c3cc(N4CCC[C@@H](C)C4)cnc23)C1 .
≥ 7.00

Give Pim-2 (Homo sapiens (Human)) pIC50 for the following compound: C[C@@H]1C[C@H](N)C[C@H](c2ccncc2NC(=O)c2ccc(F)c3cc(-c4ccc(F)c5cccnc45)cnc23)C1
5.00 to 6.00

State pIC50 (Pim-2 (Homo sapiens (Human))) of C[C@@H]1C[C@H](N)C[C@H](c2ccncc2NC(=O)c2ccc(F)c3cc(N4CCOC[C@H]4C)nnc23)C1 .
≥ 7.00

Fill in pIC50 for CCc1cc2c(F)ccc(C(=O)Nc3cnccc3[C@@H]3C[C@H](C)C[C@H](N)C3)c2nn1 tested with Pim-2 (Homo sapiens (Human)).
5.00 to 6.00
